Numbers sourced from patent US8207160B2.

# system_under_test: human dopamine D2L receptors (long isoform) (Homo sapiens)
# Construct: expressed in transfected cells; membranes used
# test: Dopamine D2L receptor binding, displacement of [125I]-iodospiperone
# condition_parameters: Ki(D2L)/Ki(D3); human D2L and D3 receptors in HEK-293 membranes
If the reported Selectivity vs. D2L* equals or exceeds 80, assign MET. If not, assign NOT MET.

compound: CCCN1CCc2ccc(S(=O)(=O)Nc3ccc(OC(F)(F)F)cc3)cc2CC1.Cl [Example 35]
category: NOT MET

Could you tell me if the measured Selectivity vs. D2L* of CCCN1CCc2ccc(NS(=O)(=O)c3ccc(Cl)s3)cc2CC1.O=C(O)C(F)(F)F [Example 21] reaches 80 or more? NOT MET

Could you tell me if the measured Selectivity vs. D2L* of C=CCN1CCc2ccc(NS(=O)(=O)c3ccc(C(F)(F)F)cc3)cc2CC1.Cl [Example 58] reaches 80 or more? MET

====

# system_under_test: human dopamine D2L receptors (long isoform) (Homo sapiens, UniProt P14416)
# Construct: expressed in transfected cells; membranes used
# Sequence (P14416 whole entry, canonical isoform): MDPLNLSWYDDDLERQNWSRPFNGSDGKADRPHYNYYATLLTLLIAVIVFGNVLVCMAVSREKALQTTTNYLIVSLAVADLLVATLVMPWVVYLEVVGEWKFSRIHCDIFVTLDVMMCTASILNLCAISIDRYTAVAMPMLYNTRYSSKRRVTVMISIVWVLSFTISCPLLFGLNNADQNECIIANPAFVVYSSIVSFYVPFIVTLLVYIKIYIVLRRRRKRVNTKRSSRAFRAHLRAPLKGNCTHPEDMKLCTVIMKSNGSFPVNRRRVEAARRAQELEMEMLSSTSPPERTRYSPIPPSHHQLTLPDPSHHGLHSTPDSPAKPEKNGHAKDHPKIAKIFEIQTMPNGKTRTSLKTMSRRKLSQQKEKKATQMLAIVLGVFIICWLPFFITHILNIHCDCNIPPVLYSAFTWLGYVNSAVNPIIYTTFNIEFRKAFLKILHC
# test: Dopamine D2L receptor binding, displacement of [125I]-iodospiperone
# condition_parameters: Ki(D2L)/Ki(D3); human D2L and D3 receptors in HEK-293 membranes
readout_type: Selectivity vs. D2L*
// no unit string in output, number only

entry_smiles: CCCN1CCc2ccc(NS(=O)(=O)c3ccc(CC)cc3)cc2CC1.Cl
measured_result: 368
--
entry_smiles: CCCN1CCc2ccc(NS(=O)(=O)c3ccc(C(C)(C)CC)cc3)cc2CC1.O=C(O)C(F)(F)F
measured_result: 113

Would you mind telling me what Selectivity vs. D2L* value was observed for "CCCN1CCc2ccc(NS(=O)(=O)c3ccc(C(C)=O)cc3)cc2CC1" ? 271

Would you mind telling me what Selectivity vs. D2L* value was observed for "CCCN1CCc2ccc(NS(=O)(=O)c3ccc(Br)cc3C)cc2CC1.O=C(O)C(F)(F)F" ? 85
